All values here come from the emibetuzumab library of Makowski et al. (2022).

B1: VH:VL chains; a variant is named by its letters at X, in order (parent)
chain 1: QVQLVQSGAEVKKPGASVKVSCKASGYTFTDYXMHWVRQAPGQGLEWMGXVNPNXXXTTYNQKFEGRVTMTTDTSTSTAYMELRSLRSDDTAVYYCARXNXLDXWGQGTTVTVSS
chain 2: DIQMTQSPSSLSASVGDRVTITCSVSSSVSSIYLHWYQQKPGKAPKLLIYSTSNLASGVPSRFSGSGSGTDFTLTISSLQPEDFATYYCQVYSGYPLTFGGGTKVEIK

Variants of: B1
Experiment: yeast display scFab, FACS + sequencing
experimentalEndpoint: non-specific binding call

Some variants with known non-specific binding call results, for comparison:
- variantDesignation: "DTGTGAGV"
  non-specific binding call: "no binding"
- variantDesignation: "DETRSAGA"
  non-specific binding call: "no binding"
- variantDesignation: "YETGAAAA"
  non-specific binding call: "no binding"
- variantDesignation: "YRRRGAGA"
  non-specific binding call: "binds"
- variantDesignation: "YGGRAAGA"
  non-specific binding call: "binds"
- variantDesignation: "FRGESAAA"
  non-specific binding call: "binds"
- variantDesignation: "FRGRGALA"
  non-specific binding call: "binds"
- variantDesignation: "DATGGSSY"
  non-specific binding call: "no binding"

Now for the variant whose non-specific binding call we want.
Task: Fill blank: measured non-specific binding call of the variant YKGGSAWY is ____.
Output: binds
